B1: KRT13 (parent)
chain: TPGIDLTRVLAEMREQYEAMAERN

- Variants of: B1
- experiment-notes: protein stability index of a GFP-peptide fusion (GPS, HEK-293T) (PSI 1-6); higher = more stable;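 further: lentivirally expressed fusions sorted by FACS into six bins by GFP to DsRed ratio, PSI derived from sequencing read proportions per bin multiplied by bin number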
- test-context: c terminus: a fixed tail appended
measured-quantity: protein stability index
Write no unit; give the number alone.

Please review the entries below; each comes with its answer.
INSERT INTO results (sequence_entry, measured_quantity, test_value) VALUES
  ('TPGIDLTRVLAEHREQYEAMAERN [M13H]', 'protein stability index', 4.74),
  ('TPGIKLTRVLAEMREQYEAMAERN [D5K]', 'protein stability index', 2.21),
  ('TPGIDLTRVPAEMREQYEAMAERN [L10P]', 'protein stability index', 5.31),
  ('TPGIDLTRHLAEMREQYEAMAERN [V9H]', 'protein stability index', 4.47),
  ('TPGIDLTRVLAFMREQYEAMAERN [E12F]', 'protein stability index', 3.42),
  ('TPGIDLTRVLAEMREQYKAMAERN [E18K]', 'protein stability index', 3.84);

QUERY: # query: protein stability index of entry QPGIDLTRVLAEMREQYEAMAERN [T1Q]
RESULT: 3.13

QUERY: What value of protein stability index has been reported for the following variant? TPGIDLTRVNAEMREQYEAMAERN [L10N]
RESULT: 5.71

QUERY: Field request: protein stability index | item: TPGIDLTRVEAEMREQYEAMAERN [L10E]
RESULT: 5.2

QUERY: Give its protein stability index value. Item: TPGIDLTRSLAEMREQYEAMAERN [V9S]
RESULT: 3.41

QUERY: So what's the measured protein stability index for this one? TPGIDLTRVLAEMREQYEVMAERN [A19V]
RESULT: 3.23

QUERY: Please look up its protein stability index: TPGIDLTRVLAEMREQKEAMAERN [Y17K]
RESULT: 5.5

QUERY: Name the reported protein stability index value associated with the variant TPGIDLTRVHAEMREQYEAMAERN [L10H]
RESULT: 4.95

QUERY: I would be grateful if you could share the reported protein stability index for TPEIDLTRVLAEMREQYEAMAERN [G3E] .
RESULT: 2.78

QUERY: Look up protein stability index for this variant: NPGIDLTRVLAEMREQYEAMAERN [T1N]
RESULT: 4.26

QUERY: What does the data say about its protein stability index? Entry: TPGIDHTRVLAEMREQYEAMAERN [L6H]
RESULT: 3.99

QUERY: Suppose we examine the variant TPGIDLTRVLAEMREQYEAMAENN [R23N] ; what protein stability index value has been reported?
RESULT: 4.59

QUERY: For the variant shown here, TPGIDLTRVLAEMMEQYEAMAERN [R14M] , give the reported protein stability index.
RESULT: 3.69

QUERY: Form field: reported protein stability index of TPIIDLTRVLAEMREQYEAMAERN [G3I]
RESULT: 3.38

QUERY: So what does the record say about protein stability index for TPGIDLTRVLAEMREQYEAMAERL [N24L] ?
RESULT: 4.83

QUERY: Returns the measured protein stability index for the input variant. Input: TLGIDLTRVLAEMREQYEAMAERN [P2L]
RESULT: 2.86

QUERY: Please look up its protein stability index: TPGIDLTRVLDEMREQYEAMAERN [A11D]
RESULT: 4.01

QUERY: Recorded protein stability index of TPGIDLTRVLAEMREQYEAMAERP [N24P] , please.
RESULT: 4.07

QUERY: Can you look up the measured protein stability index of TPGIDLTRVLAHMREQYEAMAERN [E12H] for me?
RESULT: 3.08

QUERY: Looking for the measured protein stability index of TPGSDLTRVLAEMREQYEAMAERN [I4S] , can you help?
RESULT: 4.48
